# study-target: T1, 4H457-bA
# T1 chain: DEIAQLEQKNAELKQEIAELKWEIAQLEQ
# experimental-details: two-hybrid library CCNG1;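 further: natural log of median RNA to DNA barcode read ratio; higher means stronger binding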
reported-metric: interaction score

DKNAQLKQKNAELKQKIAELKWEIAQLEQ [4H4073-bA] : -1.06

(I) DEIAQLEQEIAELKQKNAELEWKIAQLKQ [4H118-bA]
(II) DKIAQLKQEIAELKQKNAELEWEIAQLEQ [4H2673-bA]
(III) DKIAQLKQENAELEQEIAELKWKIAQLKQ [4H2702-bA]
Please produce an ascending ranking of these binders based on interaction score. Please reply with the labels ordered as requested. Many thanks. II, I, III
(II: -1.45, I: -0.384, III: 1.03)
